Target: HIV-1 BaL.01 Env gp160 on pseudovirus (HIV-1 BaL.01)
Experiment: cell-based or functional assay
Bridges are numbered along the chain shown (N, C = ends). Where no end group is shown, it is not given here. [ ]: non-standard residue; d: D form. triazolo‑Pro(3,4-diMe-benzyl) = triazolo-proline with para- and meta-methyl phenyl methyl on the triazole; triazolo‑Pro(2-Me-benzyl) = triazolo-proline with ortho-methyl phenyl methyl on the triazole; triazolo‑Pro(3-Me-benzyl) = triazolo-proline with meta-methyl phenyl methyl on the triazole; triazolo‑Pro(4-Me-benzyl) = triazolo-proline with para-methyl phenyl methyl on the triazole; triazolo‑Pro(benzyl) = triazolo-proline with phenyl methyl moiety on the triazole; triazolo‑Pro(biphenyl) = triazolo-proline with biphenyl group on the triazole
Hi there, I'd appreciate the recorded HIV-1Bal.01 infection inhibition IC50 for every entry that follows.
Form entry: value (nM) — number only.

Returns the measured HIV-1Bal.01 infection inhibition IC50 for the input binder. Input: DNI[triazolo‑Pro(biphenyl)]WK-NH2 (lactam 1-6) [cPT 23]
269

Entry DNI[triazolo‑Pro(4-Me-benzyl)]WK-NH2 (lactam 1-6) [cPT 24] please
180

// query: DNI[triazolo‑Pro(4-iPr-phenyl)]WK-NH2 (lactam 1-6) [cPT 21]
900

Can you check DNI[triazolo‑Pro(3-Me-benzyl)]WK-NH2 (lactam 1-6) [cPT 26] next?
220

Same read-out for DNI[triazolo‑Pro(3,4-diMe-benzyl)]WK-NH2 (lactam 1-6) [cPT 29] ?
8000

Queued: DNI[triazolo‑Pro(2-Me-benzyl)]WK-NH2 (lactam 1-6) [cPT 25]
5100

Could you do the same for DNIPWK-NH2 (lactam 1-6; not fully specified (residue 4); also: further groups not given here) [cPT 20] , please?
1200

Now consider DNI[triazolo‑Pro]WK-NH2 (lactam 1-6; not fully specified) [cPT 18] and answer again.
1400

And for DNI[triazolo‑Pro(benzyl)]WK-NH2 (lactam 1-6) [cPT 19] ?
438
